The following binders are shown together with reported CRF1R EC50 values.
- target_or_test_system: corticotropin releasing factor 1 receptor
- measurement_notes: cell-based or functional assay

binder	CRF1R EC50
ZGPPISIDLPIHLLRKMIEIEKQEKEKQQAANNRLLLDTI (C-terminal amide) [SEQ ID NO 77]	> 100 nM
ZGPPISIDLPTTLLRKMIEIEKQEKEKQQAANNRLLLDTI (C-terminal amide) [SEQ ID NO 42]	> 1000 nM
ZGPPISIDLPTVLLRKMIEIEKQEKEKQQAANNRLLLDTI (C-terminal amide) [SEQ ID NO 46]	> 1000 nM
